# credit: patent US12679837B2

test: Pharmacokinetic evaluation in female Balb/c mice; format: in vivo; settings: mouse, plasma, Oral Administration: 10 mg/kg, read-out: Oral Exposure AUC0-t
measurement type: AUC(0-t) (µM·h)
Form entry: value (µM·h) — number only.

Entry C[C@@]1(O)CCC[C@H]1N1C(=O)CCc2cnc(NC3CCN(S(C)(=O)=O)CC3)nc21 [Compound 1A] ; AUC(0-t) = 3.37

====

tested on: HCT116 cells; assay: HCT116 cell activity test (CellTiter-Glo); format: cell-based; details: Homo sapiens, HCT-116, 96 h, 4 days, read-out: Antiproliferative activity (IC50) HCT 116
measurement type: pIC50
On this scale, pIC50 is minus log10 of a concentration expressed in M (mol/L).

compound=C[C@@]1(O)CCC[C@H]1N1C(=O)CCc2cnc(NC3CCN(S(C)(=O)=O)CC3)nc21 measured_on="HCT116 cells" meas_value=7.15

# pIC50 of C[C@@]1(O)CCC[C@H]1n1c(=O)c(C(F)F)cc2cnc(NC3CCN(S(C)(=O)=O)CC3)nc21 [PF-06873600, reference compound] = 6.85

====

target: CDK2/CyclinE1 (Homo sapiens); experiment: CDK2/CyclinE1 kinase activity test (ADP-Glo); conditions: 150 μM ATP, 25° C., 60 minutes; read-out: Enzyme activity data (IC50) CDK2/CyclinE1
measurement type: IC50

The molecule C[C@@]1(O)CCC[C@H]1N1C(=O)CCc2cnc(NC3CCN(S(C)(=O)=O)CC3)nc21 [Compound 1A] showed IC50 equal to 1.19 nM

====

target: CDK2/CyclinA2 (Homo sapiens, UniProt P24941); assay: CDK2/CyclinA2 kinase activity test (ADP-Glo); conditions: 50 μM ATP, 25° C., 60 minutes; read-out: Enzyme activity data (IC50) CDK2/cyclinA
# key: entry, value: pIC50
Value format note: pIC50 is -log10 of concentration (mol/L); just state the number.

substance_smiles=CC(C)N1CC(S(=O)(=O)N2CCC(Nc3ncc4c(n3)N([C@@H]3CCC[C@@]3(C)O)C(=O)CC4)CC2)C1 measurement_type=pIC50 meas_value=8.85

For `CCS(=O)(=O)N1CCC(Nc2ncc3c(n2)N([C@@H]2CCC[C@@]2(C)O)C(=O)CC3)CC1` the compound record lists pIC50 as 8.88

Data point: `C[C@@]1(O)CCC[C@H]1N1C(=O)CCc2cnc(NC3CCN(S(C)(=O)=O)CC3)nc21` ; pIC50 = 9.55

// field: pIC50; key: `CN1CC(S(=O)(=O)N2CCC(Nc3ncc4c(n3)N([C@@H]3CCC[C@@]3(C)O)C(=O)CC4)CC2)C1` ; value = 8.82

Note to self: pIC50 recorded for `COCCS(=O)(=O)N1CCC(Nc2ncc3c(n2)N([C@@H]2CCC[C@@]2(C)O)C(=O)CC3)CC1` was 8.95

====

biological target: CDK6/CyclinD1 (Homo sapiens); assay: CDK6/CyclinD1 kinase activity test (LANCE Ultra TR-FRET); conditions: 250 μM ATP, 25° C., 120 minutes; read-out: Enzyme activity data (IC50) CDK6/cyclinD1
Sequence (Q00534 whole entry): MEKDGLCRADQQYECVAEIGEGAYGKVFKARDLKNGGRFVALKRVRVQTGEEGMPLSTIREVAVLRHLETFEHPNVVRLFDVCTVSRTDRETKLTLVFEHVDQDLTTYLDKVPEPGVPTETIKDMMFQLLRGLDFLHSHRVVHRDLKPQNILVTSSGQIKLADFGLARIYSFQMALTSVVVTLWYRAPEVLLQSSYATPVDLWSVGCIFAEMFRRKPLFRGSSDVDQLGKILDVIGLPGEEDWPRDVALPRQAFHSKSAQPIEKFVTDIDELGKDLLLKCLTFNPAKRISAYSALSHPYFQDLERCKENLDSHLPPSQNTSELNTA
Sequence (P24385 whole entry partner): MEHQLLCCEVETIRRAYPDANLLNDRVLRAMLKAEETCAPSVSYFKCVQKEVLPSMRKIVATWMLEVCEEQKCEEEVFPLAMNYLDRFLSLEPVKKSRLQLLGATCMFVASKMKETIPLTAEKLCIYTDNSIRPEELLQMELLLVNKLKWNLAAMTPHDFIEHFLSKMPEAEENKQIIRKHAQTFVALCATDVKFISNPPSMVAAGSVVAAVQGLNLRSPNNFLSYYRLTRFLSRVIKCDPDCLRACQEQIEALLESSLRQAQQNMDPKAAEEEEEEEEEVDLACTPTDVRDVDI
Heads up, the class ranges for IC50 are category 1 (below 3 nM), category 2 (3 nM to below 5 nM), category 3 (5 nM or more)

Hi, small favor: classify `CCN1CC(S(=O)(=O)N2CCC(Nc3ncc4c(n3)N([C@@H]3CCC[C@@]3(C)O)C(=O)CC4)CC2)C1` by its IC50 when you get a moment.
category 2

Category of `CN1CC(S(=O)(=O)N2CCC(Nc3ncc4c(n3)N([C@@H]3CCC[C@@]3(C)O)C(=O)CC4)CC2)C1` , please.
category 1

Input `C[C@@]1(O)CCC[C@H]1N1C(=O)CCc2cnc(NC3CCN(S(=O)(=O)C4CNC4)CC3)nc21` ; output its category
category 1
